targetEntity: Flt-1 (Homo sapiens, UniProt P17948)
Sequence (P17948 27-1338, species assumed): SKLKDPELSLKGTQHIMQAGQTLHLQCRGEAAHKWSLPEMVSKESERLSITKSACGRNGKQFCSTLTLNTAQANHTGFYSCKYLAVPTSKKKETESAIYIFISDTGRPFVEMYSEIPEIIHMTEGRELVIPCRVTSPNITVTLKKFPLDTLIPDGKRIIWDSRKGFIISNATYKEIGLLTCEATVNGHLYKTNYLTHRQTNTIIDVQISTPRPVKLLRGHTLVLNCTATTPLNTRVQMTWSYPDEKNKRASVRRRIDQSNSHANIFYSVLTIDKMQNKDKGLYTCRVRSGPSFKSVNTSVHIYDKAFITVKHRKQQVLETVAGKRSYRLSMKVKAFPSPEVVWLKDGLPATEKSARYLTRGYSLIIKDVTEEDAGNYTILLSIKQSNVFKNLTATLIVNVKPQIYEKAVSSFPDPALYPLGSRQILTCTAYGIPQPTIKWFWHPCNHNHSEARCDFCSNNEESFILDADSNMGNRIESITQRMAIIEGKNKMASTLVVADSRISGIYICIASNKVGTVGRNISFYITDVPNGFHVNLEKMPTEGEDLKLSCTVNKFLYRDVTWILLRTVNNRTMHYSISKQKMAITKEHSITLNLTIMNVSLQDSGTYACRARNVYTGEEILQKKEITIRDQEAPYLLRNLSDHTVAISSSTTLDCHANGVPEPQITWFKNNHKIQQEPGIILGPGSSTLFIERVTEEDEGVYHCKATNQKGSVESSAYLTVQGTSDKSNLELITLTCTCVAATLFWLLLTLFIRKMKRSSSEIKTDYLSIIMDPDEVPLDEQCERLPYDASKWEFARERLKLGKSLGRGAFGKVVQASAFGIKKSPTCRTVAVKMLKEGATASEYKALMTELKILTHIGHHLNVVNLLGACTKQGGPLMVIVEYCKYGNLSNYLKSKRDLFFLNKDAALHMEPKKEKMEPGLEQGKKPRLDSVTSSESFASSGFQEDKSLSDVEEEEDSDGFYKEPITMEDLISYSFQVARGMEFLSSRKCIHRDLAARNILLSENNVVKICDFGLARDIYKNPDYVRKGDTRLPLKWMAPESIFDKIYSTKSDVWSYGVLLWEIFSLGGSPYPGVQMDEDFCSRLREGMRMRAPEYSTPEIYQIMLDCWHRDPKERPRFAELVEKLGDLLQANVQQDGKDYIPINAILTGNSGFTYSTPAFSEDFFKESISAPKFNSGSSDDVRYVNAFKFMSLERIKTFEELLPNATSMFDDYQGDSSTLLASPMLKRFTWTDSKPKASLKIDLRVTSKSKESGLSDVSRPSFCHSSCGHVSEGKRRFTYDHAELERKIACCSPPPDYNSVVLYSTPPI
pIC50: −log10 of the molar value.
measure: pIC50

# example entries with known answers
Q. Give pIC50 (Flt-1 (Homo sapiens, UniProt P17948)) of the following compound: `COc1cc(Nc2ncnc(Nc3ccc4[nH]ncc4c3)n2)cc(OC)c1OC`
A. 5.21 to 5.99

Q. Give pIC50 (Flt-1 (Homo sapiens, UniProt P17948)) of the following compound: `COc1cc(Nc2ncnc(Nc3nnc(-c4ccccc4)[nH]3)n2)cc(OC)c1OC`
A. < 4.97

Q. Give pIC50 (Flt-1 (Homo sapiens, UniProt P17948)) of the following compound: `COc1cc(Nc2ncnc(-n3cnc4ccccc43)n2)cc(OC)c1OC`
A. 5.20 to 5.98

# evaluate next
Q. Give pIC50 (Flt-1 (Homo sapiens, UniProt P17948)) of the following compound: `COc1cc(Nc2ncnc(-n3c(NCc4ccccc4Cl)nc4ccccc43)n2)cc(OC)c1OC`
A. 5.33 to 6.11

* * *

targetEntity: Zap-70 (Homo sapiens)
Construct: Kinases are expressed as either kinase domains or full length constructs; made in house
Sequence (P43403 whole entry, species assumed, the tested form may be a part): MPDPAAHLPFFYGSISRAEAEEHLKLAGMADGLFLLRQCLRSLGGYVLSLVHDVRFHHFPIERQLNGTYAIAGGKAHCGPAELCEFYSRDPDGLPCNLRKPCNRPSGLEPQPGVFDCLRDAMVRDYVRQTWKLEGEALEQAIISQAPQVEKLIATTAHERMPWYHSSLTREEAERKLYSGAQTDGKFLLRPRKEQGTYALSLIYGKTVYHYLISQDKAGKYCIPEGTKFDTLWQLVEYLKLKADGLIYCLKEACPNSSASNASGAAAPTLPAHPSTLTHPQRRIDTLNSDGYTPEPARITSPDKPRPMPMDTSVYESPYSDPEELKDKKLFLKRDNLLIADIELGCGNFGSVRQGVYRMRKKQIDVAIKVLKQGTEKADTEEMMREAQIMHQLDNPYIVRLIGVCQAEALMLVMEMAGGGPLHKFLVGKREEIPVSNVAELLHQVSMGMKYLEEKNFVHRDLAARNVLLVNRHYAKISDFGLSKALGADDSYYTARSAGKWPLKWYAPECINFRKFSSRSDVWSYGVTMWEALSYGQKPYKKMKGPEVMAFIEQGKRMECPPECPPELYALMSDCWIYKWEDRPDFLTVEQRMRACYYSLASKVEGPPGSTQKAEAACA
measurementNotes: Kinase inhibition assay (33P transfer), Zap-70
Assay type: biochemical
runParameters: Table 3; read-out: Zap-1
The entries below are paired with their reported IC50.

# example entries with known answers
Q. Give IC50 (Zap-70 (Homo sapiens)) of the following compound: `COc1cc(Nc2ncnc(N(c3ccccc3)c3nc4ccccc4[nH]3)n2)cc(OC)c1OC`
A. > 9.58 µM

Q. Give IC50 (Zap-70 (Homo sapiens)) of the following compound: `ClCc1ccccc1Nc1ncnc(-n2cccc2)n1`
A. > 15.7 µM

Q. Give IC50 (Zap-70 (Homo sapiens)) of the following compound: `COc1cc(Nc2ncnc(N3CCc4ccccc4C3)n2)cc(OC)c1OC`
A. > 11.4 µM

Q. Give IC50 (Zap-70 (Homo sapiens)) of the following compound: `COc1cccc(Nc2ncnc(-c3cccs3)n2)n1`
A. > 15.8 µM

---
Q. Give IC50 (Zap-70 (Homo sapiens)) of the following compound: `COc1cc(Nc2ncnc(-n3c(Nc4cccc(C(N)=O)c4)nc4ccccc43)n2)cc(OC)c1OC`
A. 0.78 to 4.68 µM

* * *

The entries below are paired with their reported pIC50.
targetEntity: EGFR (Homo sapiens)
Construct: Kinases are expressed as either kinase domains or full length constructs; made in house
Sequence (P00533 25-1210, species assumed): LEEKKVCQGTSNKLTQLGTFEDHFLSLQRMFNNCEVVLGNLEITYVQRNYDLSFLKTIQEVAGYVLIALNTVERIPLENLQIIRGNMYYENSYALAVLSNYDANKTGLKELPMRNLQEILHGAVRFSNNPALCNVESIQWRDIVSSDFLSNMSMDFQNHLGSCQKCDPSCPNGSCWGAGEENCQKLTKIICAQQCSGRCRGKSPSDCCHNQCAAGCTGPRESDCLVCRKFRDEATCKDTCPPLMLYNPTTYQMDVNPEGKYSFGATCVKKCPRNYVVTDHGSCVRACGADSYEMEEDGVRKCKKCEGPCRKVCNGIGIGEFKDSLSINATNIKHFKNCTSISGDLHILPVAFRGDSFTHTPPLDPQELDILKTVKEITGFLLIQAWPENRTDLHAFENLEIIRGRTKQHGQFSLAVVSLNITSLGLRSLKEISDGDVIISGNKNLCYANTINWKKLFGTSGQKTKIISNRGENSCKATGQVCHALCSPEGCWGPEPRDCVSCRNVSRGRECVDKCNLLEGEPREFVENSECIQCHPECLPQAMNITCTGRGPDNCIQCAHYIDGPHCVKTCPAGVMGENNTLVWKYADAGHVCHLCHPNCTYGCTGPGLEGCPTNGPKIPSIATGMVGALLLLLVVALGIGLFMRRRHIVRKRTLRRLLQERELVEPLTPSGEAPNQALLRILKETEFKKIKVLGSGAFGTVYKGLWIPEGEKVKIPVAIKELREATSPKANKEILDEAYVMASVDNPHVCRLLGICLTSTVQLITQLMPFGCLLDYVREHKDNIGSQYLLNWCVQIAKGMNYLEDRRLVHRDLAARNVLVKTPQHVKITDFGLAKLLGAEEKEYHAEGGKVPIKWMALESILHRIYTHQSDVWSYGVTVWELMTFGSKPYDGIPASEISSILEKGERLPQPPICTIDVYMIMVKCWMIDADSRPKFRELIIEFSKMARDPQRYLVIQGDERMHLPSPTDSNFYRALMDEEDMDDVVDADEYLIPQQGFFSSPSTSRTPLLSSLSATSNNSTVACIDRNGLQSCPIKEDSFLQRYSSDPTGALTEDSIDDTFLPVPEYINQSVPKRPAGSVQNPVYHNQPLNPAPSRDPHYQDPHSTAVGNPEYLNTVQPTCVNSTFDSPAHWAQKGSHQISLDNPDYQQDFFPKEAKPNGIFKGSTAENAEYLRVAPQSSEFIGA
measurementNotes: Kinase inhibition assay (33P transfer), EGFR
Format: biochemical
runParameters: Table 2, kinase inhibition class; read-out: EGFR-1
pIC50: −log10 of the molar value.

Q. Give pIC50 (EGFR (Homo sapiens)) of the following molecule: `COc1cc(Nc2ncnc(-c3cccnc3NCc3ccccc3F)n2)cc(OC)c1OC`
A. < 5.01

Q. Give pIC50 (EGFR (Homo sapiens)) of the following molecule: `Nc1nc2ccccc2n1-c1ncnc(Nc2ccc(S(N)(=O)=O)cc2)n1`
A. < 4.93

---
Q. Give pIC50 (EGFR (Homo sapiens)) of the following molecule: `CNS(=O)(=O)Cc1ccc(Nc2ncnc(Nc3ccc4c(cnn4Cc4ccccc4)c3)n2)cc1`
A. 5.32 to 6.10

Q. Give pIC50 (EGFR (Homo sapiens)) of the following molecule: `COc1cc(Nc2ncnc(Nc3cc(-c4cccc(C)c4)n[nH]3)n2)cc(OC)c1OC`
A. 5.26 to 6.03

Q. Give pIC50 (EGFR (Homo sapiens)) of the following molecule: `COc1cc(Nc2ncnc(N(CCC(C)C)c3ccc(Cl)cc3)n2)cc(OC)c1OC`
A. > 6.06

Q. Give pIC50 (EGFR (Homo sapiens)) of the following molecule: `COc1cc(Nc2ncnc(-n3c(NCC(N)=O)nc4ccccc43)n2)cc(OC)c1OC`
A. < 5.00

Q. Give pIC50 (EGFR (Homo sapiens)) of the following molecule: `COc1cc(Nc2ncnc(-n3c(Nc4ccc(Cl)cc4)nc4ccccc43)n2)cc(OC)c1OC`
A. < 5.05

Q. Give pIC50 (EGFR (Homo sapiens)) of the following molecule: `COc1cc(Nc2ncnc(Nc3nnc(-c4ccccc4)[nH]3)n2)cc(OC)c1OC`
A. < 4.97

Q. Give pIC50 (EGFR (Homo sapiens)) of the following molecule: `COc1cc(Nc2ncnc(Nc3cc(OC)c(OC)c(OC)c3)n2)cc(OC)c1`
A. < 4.96

Q. Give pIC50 (EGFR (Homo sapiens)) of the following molecule: `COc1cc(Nc2ncnc(-n3c(N)nc4ccccc43)n2)cc(OC)c1OC`
A. < 4.94

Q. Give pIC50 (EGFR (Homo sapiens)) of the following molecule: `FC(F)(F)c1ccc(Cl)c(Nc2ncnc(-n3cccc3)n2)c1`
A. < 4.88

Q. Give pIC50 (EGFR (Homo sapiens)) of the following molecule: `COc1cc(Nc2ncnc(-n3c(NCc4ccc(F)cc4)nc4ccccc43)n2)cc(OC)c1OC`
A. < 5.05
